Origin of the recorded values: ChEMBL document CHEMBL1135306

# MIC per record follows
test system: Staphylococcus aureus; assay: In vitro antibacterial activity against methicillin sensitive Staphylococcus aureus (ATCC 25923); type: functional
Please give a number only; it is taken to be in µg/mL.

Sample answers from the record:
CN[C@H](CC(C)C)C(=O)N[C@H]1C(=O)N[C@@H](CC#N)C(=O)N[C@H]2C(=O)N[C@H]3C(=O)N[C@H](C(=O)N[C@H](C(=O)OC)c4cc(O)cc(O)c4-c4cc3ccc4O)[C@H](O)c3ccc(c(Cl)c3)Oc3cc2cc(c3O[C@@H]2O[C@H](CO)[C@@H](O)[C@H](O)[C@H]2O[C@H]2C[C@](C)(N)[C@H](O)[C@H](C)O2)Oc2ccc(cc2Cl)[C@H]1O	2.5
CN[C@H](CC(C)C)C(=O)N[C@H]1C(=O)N[C@@H](CC(N)=O)C(=O)N[C@H]2C(=O)N[C@H]3C(=O)N[C@H](C(=O)N[C@H](C(=O)OC)c4cc(OC)cc(OC)c4-c4cc3ccc4OC)[C@H](O)c3ccc(c(Cl)c3)Oc3cc2cc(c3OC)Oc2ccc(cc2Cl)[C@H]1O	0.625
CN[C@H](CC(C)C)C(=O)N[C@H]1C(=O)N[C@@H](CC(N)=O)C(=O)N[C@H]2C(=O)N[C@H]3C(=O)N[C@H](C(=O)N[C@H](C(=O)O)c4cc(O)cc(O)c4-c4cc3ccc4O)[C@H](O)c3ccc(c(Cl)c3)Oc3cc2cc(c3O[C@@H]2O[C@H](CO)[C@@H](O)[C@H](O)[C@H]2O[C@H]2C[C@](C)(N)[C@H](O)[C@H](C)O2)Oc2ccc(cc2Cl)[C@H]1O [VANCOMYCIN]	1.25

Now look at this entry.
// recorded MIC for CN[C@H](CC(C)C)C(=O)N[C@H]1C(=O)N[C@@H](CC(N)=O)C(=O)N[C@H]2C(=O)N[C@H]3C(=O)N[C@H](C(=O)N[C@H](C(=O)O)c4cc(OC)cc(OC)c4-c4cc3ccc4OC)[C@H](O)c3ccc(c(Cl)c3)Oc3cc2cc(c3OC)Oc2ccc(cc2Cl)[C@H]1O : 0.625
